# credit: patent EP0403591B1

- Test system: cultured rat pituitary cells
- ASSAY NOTES: Secretion of ACTH and β-endorphin by cultured rat pituitary cells (procedure of Example III)
- Assay type: cell-based
- CONDITION CONTEXT: stimulation of secretion of ACTH and β-endorphin by cultured rat pituitary cells; read-out: Half-maximal responses (concentration)
pEC50: −log10 of the molar value. No end group written: not given here.
RECORDED ENDPOINT: pEC50

The value of pEC50 measured for the substance SEEPPISLDLTFHLLREVLHMARAEQLAQQAHSNRKLMEII-NH2 [Example I, [His²⁰]-rCRF] turned out to be > 9.60
